- ASSAYED SYSTEM: T1, TLR7 WT (mmTLR7) (Macaca mulatta, UniProt B3Y653 27-839)
- T1 sequence: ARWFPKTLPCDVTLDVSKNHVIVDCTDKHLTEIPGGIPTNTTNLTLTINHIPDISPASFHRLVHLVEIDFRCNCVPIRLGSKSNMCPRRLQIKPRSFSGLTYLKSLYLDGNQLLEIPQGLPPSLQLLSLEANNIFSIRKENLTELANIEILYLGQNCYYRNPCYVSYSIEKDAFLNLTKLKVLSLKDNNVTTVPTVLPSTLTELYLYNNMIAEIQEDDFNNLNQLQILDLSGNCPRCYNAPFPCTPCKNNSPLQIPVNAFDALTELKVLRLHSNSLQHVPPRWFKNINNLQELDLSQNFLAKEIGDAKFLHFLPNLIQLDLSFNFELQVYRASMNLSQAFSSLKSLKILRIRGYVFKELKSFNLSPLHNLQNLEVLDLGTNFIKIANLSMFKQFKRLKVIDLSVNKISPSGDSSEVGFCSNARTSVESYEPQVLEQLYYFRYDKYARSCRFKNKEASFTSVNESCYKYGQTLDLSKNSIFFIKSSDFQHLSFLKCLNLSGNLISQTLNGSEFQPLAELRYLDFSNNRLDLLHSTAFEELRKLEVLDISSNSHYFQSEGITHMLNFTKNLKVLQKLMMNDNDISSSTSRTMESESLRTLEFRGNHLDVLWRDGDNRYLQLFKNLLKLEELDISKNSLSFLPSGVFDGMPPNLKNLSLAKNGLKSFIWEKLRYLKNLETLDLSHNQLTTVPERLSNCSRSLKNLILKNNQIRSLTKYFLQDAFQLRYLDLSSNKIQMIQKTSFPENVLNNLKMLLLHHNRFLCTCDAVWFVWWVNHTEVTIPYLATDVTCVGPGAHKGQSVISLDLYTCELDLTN
- MEASUREMENT DESCRIPTION: SPR; mean computed from runs 0.9±0.3, 2±0.5, 1.4±0.6; SPR with recombinant TLR7/TLR8; buffer, pH and temperature not in the material
- ASSAY SETUP: protein: recombinant; chain copies: 2; single-stranded
PARAMETER: Kd (nM)

binder="GUC (XNA, 2'-OMe G1, RNA U2 C3; phosphorothioate linkages) [mGrUrC PS]" parameter=Kd reported=1430
